meta.source: paper PMC7582905

molecules and their reported MIC C. albicans
Test system: Candida albicans ATCC 10231
Type: cell-based
Details: ATCC 10231, 24 h
Where a SMILES comes first, the peptide text is derived from it. Bridges are numbered along the chain shown (N, C = ends). The star is where a group is joined. Palmitoyl = CCCCCCCCCCCCCCCC(=O)*
A number alone suffices; assume µg/mL.

| molecule | assayEndpoint | dataValue |
| --- | --- | --- |
| CCCCCCCCCCCCCCCC(=O)N[C@H]1CSSC[C@@H](C(N)=O)NC(=O)[C@H](CCCCN)NC(=O)[C@H](CCCCN)NC(=O)[C@H](CCCCN)NC1=O [C1, C16-CKKKC-NH2] (Palmitoyl-CKKKC-NH2; disulfide 1-5) | MIC C. albicans | 8 |
| CCCCCCCCCCCCCCCC(=O)N[C@@H](CCCNC(=N)N)C(=O)N[C@@H](CCCNC(=N)N)C(=O)N[C@@H](CCCCN)C(=O)N[C@@H](CCCCN)C(N)=O [L7, C16-RRKK-NH2] (Palmitoyl-RRKK-NH2) | MIC C. albicans | 32 |

Now for the molecule whose MIC C. albicans we want.
Query string: Given the entry CCCCCCCCCCCCCCCC(=O)N[C@@H](CCCCN)C(=O)N[C@@H](CCCCN)C(=O)N[C@@H](CCCCN)C(=O)N[C@@H](CCCCN)C(N)=O [L2, C16-KKKK-NH2] (Palmitoyl-KKKK-NH2) , report its measured MIC C. albicans.
Result string: 32

---

Tested on: Candida albicans ATCC 10231
Format: cell-based
Conditions: ATCC 10231, 24 h
Where a SMILES comes first, the peptide text is derived from it. Bridges are numbered along the chain shown (N, C = ends). The star is where a group is joined. Palmitoyl = CCCCCCCCCCCCCCCC(=O)*
Assign labels as follows, please: Met for MBIC C. albicans below 30 µg/mL; Not met for MBIC C. albicans equal to or exceeding 30 µg/mL.

Here are 4 compounds together with their reported answers.
| compound | groupLabel |
| --- | --- |
| CCCCCCCCCCCCCCCC(=O)N[C@@H](CCCNC(=N)N)C(=O)N[C@@H](CCCCN)C(=O)N[C@@H](CCCCN)C(=O)N[C@@H](CCCCN)C(N)=O [L3, C16-RKKK-NH2] (Palmitoyl-RKKK-NH2) | Not met |
| CCCCCCCCCCCCCCCC(=O)N[C@@H](CCCCN)C(=O)N[C@@H](CCCCN)C(=O)N[C@@H](CCCCN)C(=O)N[C@@H](CCCCN)C(N)=O [L2, C16-KKKK-NH2] (Palmitoyl-KKKK-NH2) | Not met |
| CCCCCCCCCCCCCCCC(=O)N[C@H]1CSSC[C@@H](C(N)=O)NC(=O)[C@H](CCCNC(=N)N)NC(=O)[C@H](CCCCN)NC(=O)[C@H](CCCCN)NC(=O)[C@H](CCCCN)NC1=O [C6, C16-CKKKRC-NH2] (Palmitoyl-CKKKRC-NH2; disulfide 1-6) | Met |
| CCCCCCCCCCCCCCCC(=O)N[C@@H](CCCCN)C(=O)N[C@@H](CCCCN)C(=O)N[C@@H](CCCCN)C(=O)N[C@@H](CCCNC(=N)N)C(N)=O [L6, C16-KKKR-NH2] (Palmitoyl-KKKR-NH2) | Not met |

Query string: State whether 30 µg/mL exceeds MBIC C. albicans recorded for CCCCCCCCCCCCCCCC(=O)N[C@H]1CSSC[C@@H](C(N)=O)NC(=O)[C@H](CCCCN)NC(=O)[C@H](CCCCN)NC(=O)[C@H](CCCNC(=N)N)NC(=O)[C@H](CCCNC(=N)N)NC1=O [C7, C16-CRRKKC-NH2] (Palmitoyl-CRRKKC-NH2; disulfide 1-6) .
Result string: Met

Query string: State whether 30 µg/mL exceeds MBIC C. albicans recorded for CCCCCCCCCCCCCCCC(=O)N[C@H]1CSSC[C@@H](C(N)=O)NC(=O)[C@H](CCCCN)NC(=O)[C@H](CCCCN)NC(=O)[C@H](CCCNC(=N)N)NC(=O)[C@H](CCCCN)NC1=O [C4, C16-CKRKKC-NH2] (Palmitoyl-CKRKKC-NH2; disulfide 1-6) .
Result string: Met

Query string: State whether 30 µg/mL exceeds MBIC C. albicans recorded for "CCCCCCCCCCCCCCCC(=O)N[C@@H](CCCCN)C(=O)N[C@@H](CCCCN)C(=O)N[C@@H](CCCCN)C(N)=O" .
Result string: Not met

Query string: State whether 30 µg/mL exceeds MBIC C. albicans recorded for CCCCCCCCCCCCCCCC(=O)N[C@@H](CCCNC(=N)N)C(=O)N[C@@H](CCCNC(=N)N)C(=O)N[C@@H](CCCCN)C(=O)N[C@@H](CCCCN)C(N)=O [L7, C16-RRKK-NH2] (Palmitoyl-RRKK-NH2) .
Result string: Not met

Query string: State whether 30 µg/mL exceeds MBIC C. albicans recorded for CCCCCCCCCCCCCCCC(=O)N[C@H]1CSSC[C@@H](C(N)=O)NC(=O)[C@H](CCCCN)NC(=O)[C@H](CCCCN)NC(=O)[C@H](CCCCN)NC1=O [C1, C16-CKKKC-NH2] (Palmitoyl-CKKKC-NH2; disulfide 1-5) .
Result string: Not met
